Taken from the supplement of paper PMC13380429.

Tested on: Calu-3
Assay: cell viability relative to DMSO; higher = less toxic
Details: 72 h; 1 nM
ENDPOINT LABEL: cell viability (%)

Nc1cc(C(Cl)=C(Cl)Cl)c(S(N)(=O)=O)cc1S(N)(=O)=O
90.1
Cc1[nH]c(/C=C2\C(=O)Nc3ccc(S(=O)(=O)Cc4c(Cl)cccc4Cl)cc32)c(C)c1C(=O)N1CCC[C@@H]1CN1CCCC1
100
OCCn1cc(-c2cnc3nnn(Cc4ccc5ncccc5c4)c3n2)cn1
99
Nc1nc(N)c2nc(-c3cccc(O)c3)cnc2n1
99.9
CC(C)C[C@@H]1NC(=O)[C@@H](C(C)C)NC(=O)[C@@H]2CCCN2C(=O)[C@@H](CC(=O)O)NC(=O)[C@@H](Cc2c[nH]c3ccccc23)NC1=O
93.7
CC(C)Nc1cc(-c2c[nH]c(C(=O)N[C@H](CO)c3cccc(Cl)c3)c2)c(Cl)cn1
106
CC(C)C[C@H](NC(=O)CNC(=O)c1cc(Cl)ccc1Cl)B1OC(=O)C(CC(=O)O)(CC(=O)O)O1
95.1
CC(C)(O)CS(=O)(=O)Nc1ccc2c(c1)CCN(C(=O)COc1cccnc1)C2
93.2

----------
Below is a list of entries, each paired with its recorded cell viability value.
Tested on: U2OS
Experiment: cell viability relative to DMSO; higher = less toxic
Settings: 72 h; 1000 nM
ENDPOINT LABEL: cell viability (%)

CC(O)c1cc(C(=O)N[C@@H](C)Cn2ccc(-c3ccc(C#N)c(Cl)c3)n2)n[nH]1 (some centres not stated)
93.4
CC(/C=C1\SC(=S)N(CC(=O)O)C1=O)=C\c1ccccc1
103
CO[C@H]1/C=C/O[C@@]2(C)Oc3c(C)c(O)c4c(O)c(c(/C=N/N=C/N5CCCCC5)c(O)c4c3C2=O)NC(=O)/C(C)=C\C=C\[C@H](C)[C@H](O)[C@@H](C)[C@@H](O)[C@@H](C)[C@H](OC(C)=O)[C@@H]1C
99.6
CCN(C(=O)c1c(O)c2c(Cl)cccc2n(C)c1=O)c1ccccc1
97.6
O=C1NCN(c2ccccc2)C12CCN(CCCC(c1ccc(F)cc1)c1ccc(F)cc1)CC2
105
COc1ccc2c(OCc3nnc4ccc(-c5ccccc5)nn34)ccnc2c1
103
CC[C@]1(O)C[C@@H]2CN(CCc3c([nH]c4ccccc34)[C@@](C(=O)OC)(c3cc4c(cc3OC)N(C)[C@H]3[C@@](O)(C(N)=O)[C@H](O)[C@]5(CC)C=CCN6CC[C@]43[C@@H]65)C2)C1
26.4

----------
Tested on: Caco-2
Experiment: cell viability relative to DMSO; higher = less toxic
Conditions: 72 h; 10000 nM
Just a reminder that ties go to class 0: only cell viability strictly below 90% counts as class 1.

Cc1cccc(C)c1NC(=O)CN1CCCCCC1 [pincainide]
class 1
CCOC(=O)c1cc2ccc(O)cc2oc1=O
class 0
COCC[n+]1c2c(n(Cc3cnccn3)c1C)C(=O)c1ccccc1C2=O
class 1
Nc1cc(C(Cl)=C(Cl)Cl)c(S(N)(=O)=O)cc1S(N)(=O)=O
class 0
CC(C)Nc1cc(-c2c[nH]c(C(=O)N[C@H](CO)c3cccc(Cl)c3)c2)c(Cl)cn1
class 1
CC(C)=CCC[C@]1(C)C=Cc2c(O)c3c(c(CC=C(C)C)c2O1)O[C@]12C(=C[C@@H]4C[C@H]1C(C)(C)O[C@@]2(C/C=C(/C)C(=O)O)C4=O)C3=O
class 1
CNC(=O)c1cccc(-c2ccc3c(N4CCOC[C@@H]4C)nc(N4CCOC[C@@H]4C)nc3n2)c1
class 1
O=C1O[C@H]([C@@H](O)CO)C(O)=C1O
class 0
CS(=O)(=O)n1cc2c(n1)CN([C@H]1CO[C@H](c3cc(F)ccc3F)[C@@H](N)C1)C2
class 0
CC(=O)OCC1=C(C(=O)O)N2C(=O)[C@@H](NC(=O)Cc3cccs3)[C@H]2SC1
class 0
C[C@H](NC(=O)/C(C#N)=C/c1ccc(O)c(O)c1)c1ccccc1
class 1
O=C(Cc1ccc(Cl)c(Cl)c1)N1CCCC[C@@H]1CN1CCCC1
class 0
CC(/C=C1\SC(=S)N(CC(=O)O)C1=O)=C\c1ccccc1
class 0
CC#CCn1c(N2CCC[C@@H](N)C2)nc2c1c(=O)n(Cc1nc(C)c3ccccc3n1)c(=O)n2C
class 0
CC(C)CNc1ccnc(NCc2csc(-c3ccccc3)n2)n1
class 1

----------
Measured cell count of individual entries
System: A549-ACE2 infected with SARS-CoV-2
Assay: cell count relative to DMSO; higher = less toxic
Conditions: 3 µM; 24 h
ENDPOINT LABEL: cell count

c1ccc(-c2ccc(C(c3ccccc3)n3ccnc3)cc2)cc1 (centres undefined) [bifonazole]
112%
COc1ccc2cc(-c3nc(-c4ccc([S+](C)[O-])cc4)[nH]c3-c3ccncc3)ccc2c1 (centres undefined) [tie2-kinase-inhibitor]
114%
C[C@@H]1C[C@H]2[C@@H]3CCC4=CC(=O)C=C[C@]4(C)[C@@]3(Cl)[C@@H](O)C[C@]2(C)[C@@]1(OC(=O)c1ccco1)C(=O)CCl [MOMETASONE FUROATE]
103%
CC(C)C[C@H](NC(=O)CNC(=O)c1cc(Cl)ccc1Cl)B1OC(=O)C(CC(=O)O)(CC(=O)O)O1 [ixazomib-citrate]
60%

----------
Tested on: Caco-2
Experiment: cell viability relative to DMSO; higher = less toxic
Details: 72 h; 1 nM
ENDPOINT LABEL: cell viability (%)

CC(=O)OC[C@H](N)C(=O)O
104
CC(=O)N[C@H]1[C@H]([C@H](O)[C@H](O)CO)OC(C(=O)O)=C[C@@H]1NC(=N)N
96.4
Cc1c(-c2ccccc2)oc2c(C(=O)OCCN3CCCCC3)cccc2c1=O [flavoxate]
89.1
Cc1ccccc1N1CCN(CCc2nnc3n2CCCC3)CC1
106
O=S(=O)(O)c1ccc(-c2c3nc(c(-c4ccc(S(=O)(=O)O)cc4)c4ccc([nH]4)c(-c4ccc(S(=O)(=O)O)cc4)c4nc(c(-c5ccc(S(=O)(=O)O)cc5)c5ccc2[nH]5)C=C4)C=C3)cc1
107
C[n+]1ccccc1C=NO
103
Cc1c(C)c2c(c(C)c1O)CCC(C)(C)O2
90.4
[N-]=[N+]=CC(=O)CC[C@H](N)C(=O)O
95.4

----------
Tested on: Calu-3
Experiment: cell viability relative to DMSO; higher = less toxic
Details: 72 h; 100 nM
# Lookup of reported cell viability keyed by entry
ENDPOINT LABEL: cell viability (%)

COc1cc(CCc2cc(NC(=O)c3ccc(N4CC(C)NC(C)C4)cc3)n[nH]2)cc(OC)c1 (configuration not stated) [AZD4547]
93.8
CN(C)C(=O)C(=O)c1cn(C)c2cc(Cl)c(C(=O)N3CCC(Cc4ccc(F)cc4)CC3)cc12 [SX-011]
116
CC1C(=O)OC2C(O)C34C5CC(C(C)(C)C)C36C(OC(=O)C6O)OC4(C(=O)O5)C12O (configuration not stated) [ginkgolide-B]
103
Oc1cc2c(cc1O)C(c1ccccc1)CNCC2 (configuration not stated)
78.6
C[C@@H]1C[C@H]2[C@@H]3C[C@H](F)C4=CC(=O)C=C[C@]4(C)[C@@]3(F)[C@@H](O)C[C@]2(C)[C@@]1(O)C(=O)COC(=O)C(C)(C)C [flumethasone-pivalate]
106
Cn1nnnc1SCC1=C(C(=O)O)N2C(=O)[C@@H](NC(=O)[C@H](OC=O)c3ccccc3)[C@H]2SC1 [cefamandole-nafate]
94.4
FC(F)(F)c1ccc(CNc2ccc(Cc3c[nH]c4ncc(Cl)cc34)cn2)cn1 [pexidartinib]
97.6
COc1ccc2cc(-c3nc(-c4ccc([S+](C)[O-])cc4)[nH]c3-c3ccncc3)ccc2c1 (configuration not stated) [tie2-kinase-inhibitor]
101
c1ccc([C@@H]2C[C@H]2NC2CCNCC2)cc1 [GSK-LSD-1]
96.8
NC(=O)CN1Cc2ccccc2OC1=O [caroxazone]
93.7
Nc1ccc(S(N)(=O)=O)cc1 [sulfanilamide]
106
COc1ccc(CCN(C)CCc2ccc(OC)c(OC)c2)cc1OC [YS-035]
93.9
CCCCC/C=C\C/C=C\C/C=C\C/C=C\CCCC(=O)Nc1ccc(O)cc1 [AM-404]
96.8
O=C(Nc1cc(C(F)(F)F)cc(C(F)(F)F)c1)c1cnc(Cl)nc1C(F)(F)F
101
CC(O)(P(=O)(O)O)P(=O)(O)O [etidronic-acid]
109
COc1ccc(N2CCOCC2)c2sc(NC(=O)N3CCC(C)(O)CC3)nc12 [tozadenant]
87.3
O=C(Nc1cccc2cccnc12)c1ccc(N2C(=O)[C@@H]3[C@H](C2=O)[C@@H]2C=C[C@H]3C2)cc1 [endo-IWR-1]
98.9
CCOc1ccccc1C(=O)O [2-ethoxybenzoic-acid]
97.1
[N-]=[N+]=CC(=O)CC[C@H](N)C(=O)O [6-diazo-5-oxo-L-norleucine]
96.4
Cc1c(C)c2c(c(C)c1O)CCC(C)(C)O2 [APC-100]
100
CS(=O)(=O)n1cc2c(n1)CN([C@H]1CO[C@H](c3cc(F)ccc3F)[C@@H](N)C1)C2 [omarigliptin]
88.4
NC(=O)c1nc(F)cnc1O [Favipiravir]
92.5
